Tested on: tobacco leaves
Experiment: Effect of peptide infiltration on tobacco leaves (lesion size)
Format: in vivo
Conditions: D-amino acid lipopeptides; 150 µM, 100 µL infiltrated into tobacco leaves, lesion diameter, 48 h, at least three leaves; ± confidence interval
Method: The lipopeptides were evaluated for their effect upon infiltration on tobacco leaves as described previously. Peptide solutions of 50, 150 and 250 μM were infiltrated (100 μL) into the mesophylls of fully expanded tobacco leaves. […] The appearance of symptoms on the leaves was followed for 48 h after infiltration and measured as a lesion diameter.
Where a SMILES comes first, the peptide text is derived from it. [ ]: non-standard residue; d: D form. The star is where a group is joined. Lauroyl = CCCCCCCCCCCC(=O)*; Butyryl = CCCC(=O)*
property: Size of the lesion (mm) 150 µM
Write the number in mm without appending the unit.

[in] Return value of Size of the lesion (mm) 150 µM for input CCCCCCCCCCCC(=O)NCCCC[C@H](NC(=O)[C@@H](NC(=O)[C@H](CCCCN)NC(=O)[C@H](CCCCN)NC(=O)[C@@H](Cc1ccccc1)NC(=O)[C@H](CC(C)C)NC(=O)[C@H](CCCCN)NC(=O)[C@H](CCCCN)NC(C)=O)[C@@H](C)CC)C(=O)N[C@@H](CCCCN)C(=O)N[C@@H](Cc1ccc(O)cc1)C(=O)N[C@@H](CC(C)C)C(N)=O [BP490, Ac-KKLfKKIK(COC11H23)KYL-NH2] (Ac-KKL[dF]KKIK(Lauroyl)KYL-NH2) , no commentary.
[out] 6

[in] Quickly give me recorded Size of the lesion (mm) 150 µM for CCCC(=O)NCCCC[C@H](NC(=O)[C@H](CCCCN)NC(=O)[C@H](CC(C)C)NC(=O)[C@@H](NC(=O)[C@H](CCCCN)NC(=O)[C@H](CCCCN)NC(=O)[C@@H](Cc1ccccc1)NC(=O)[C@H](CC(C)C)NC(=O)[C@H](CCCCN)NC(=O)[C@H](CCCCN)NC(C)=O)[C@@H](C)CC)C(=O)N[C@@H](CC(C)C)C(N)=O [BP475, Ac-KKLfKKILKK(COC3H7)L-NH2] (Ac-KKL[dF]KKILKK(Butyryl)L-NH2)
[out] 7

[in] Input CCCC(=O)NCCCC[C@H](NC(=O)[C@H](CCCCN)NC(=O)[C@@H](Cc1ccccc1)NC(=O)[C@H](CC(C)C)NC(=O)[C@H](CCCCN)NC(=O)[C@H](CCCCN)NC(C)=O)C(=O)N[C@H](C(=O)N[C@@H](CC(C)C)C(=O)N[C@@H](CCCCN)C(=O)N[C@@H](Cc1ccc(O)cc1)C(=O)N[C@@H](CC(C)C)C(N)=O)[C@@H](C)CC , output reported Size of the lesion (mm) 150 µM.
[out] 4
